The reported measurements were obtained from ChEMBL document CHEMBL3885861.

species on record: Rattus norvegicus; assay: Open TG-GATES - Regimen: Single; format: toxicity, organism-based, Sprague-Dawley; set-up: regimen Single, gender Male, age 6 weeks; conditions: in vivo, po, 0 mg/kg, 3 h, tissue Plasma, route gavage, dose level Control
Recorded measurements of ALT, one per entry
Report the value in IU/L with no unit label.

Illustrative cases are given below, each with its answer.
CCOC(=O)CCC(=O)O[C@H]1[C@H](O[C@@H]2[C@@H](C)[C@H](O[C@H]3C[C@@](C)(OC)[C@@H](O)[C@H](C)O3)[C@@H](C)C(=O)O[C@H](CC)[C@@](C)(O)[C@H](O)[C@@H](C)C(=O)[C@H](C)C[C@@]2(C)O)O[C@H](C)C[C@@H]1N(C)C [ERYTHROMYCIN ETHYLSUCCINATE]: 40.6
Cc1ccc(C)c(OCCCC(C)(C)C(=O)O)c1 [GEMFIBROZIL]: 45.2
COC1=CC(=O)C[C@@H](C)[C@]12Oc1c(Cl)c(OC)cc(OC)c1C2=O [GRISEOFULVIN]: 45.2
CC(C)OC(=O)C(C)(C)Oc1ccc(C(=O)c2ccc(Cl)cc2)cc1 [FENOFIBRATE]: 48.4
CC1=C(/C=C/C(C)=C/C=C/C(C)=C/CO)C(C)(C)CCC1 [RETINOL]: 48
C[C@@H]1C[C@H]2[C@@H]3CCC4=CC(=O)C=C[C@]4(C)[C@@]3(F)[C@@H](O)C[C@]2(C)[C@@]1(O)C(=O)CO [DEXAMETHASONE]: 38.4
CN1C(=O)CN=C(c2ccccc2)c2cc(Cl)ccc21 [DIAZEPAM]: 31.8
COc1ccc2[nH]c([S+]([O-])Cc3ncc(C)c(OC)c3C)nc2c1 (configuration not stated) [OMEPRAZOLE]: 33.2
NNC(=O)c1ccncc1 [ISONIAZID]: 34.2
CN(C)CCCN1c2ccccc2CCc2ccc(Cl)cc21 [CLOMIPRAMINE]: 43.8

# ALT lookup, item CN(C)CCN(Cc1cccs1)c1ccccn1
41.4

Query CN(C)CCCN1c2ccccc2CCc2ccccc21 [IMIPRAMINE] next
52

Query CCOc1ccc(NC(=O)CC(C)O)cc1 (configuration not stated) [BUCETIN] next
35.8

Query O=C(CCCN1CCC(O)(c2ccc(Cl)cc2)CC1)c1ccc(F)cc1 [HALOPERIDOL] next
34.4

Query NC(N)=Nc1nc(CSCCC(N)=NS(N)(=O)=O)cs1 [FAMOTIDINE] next
39

Query CCCNC(=O)NS(=O)(=O)c1ccc(Cl)cc1 [CHLORPROPAMIDE] next
43.6

Query CC/C(=C(\c1ccccc1)c1ccc(OCCN(C)C)cc1)c1ccccc1 [TAMOXIFEN] next
47.6

---

Recorded measurements of MCHC, one per entry
organism: Rattus norvegicus; assay: Open TG-GATES - Regimen: Single; type: toxicity, organism-based, Sprague-Dawley; design: regimen Single, gender Male, age 6 weeks; details: in vivo, po, 30 mg/kg, 24 h, tissue Blood, route gavage, dose level Middle
Report the value in % with no unit label.

Illustrative cases are given below, each with its answer.
CN(C)CCN(Cc1cccs1)c1ccccn1: 33.2
CC1=C(/C=C/C(C)=C/C=C/C(C)=C/CO)C(C)(C)CCC1: 34.1

# MCHC lookup, item CN(C)CCCN1c2ccccc2CCc2ccc(Cl)cc21
32.3

Query CN(C)CCCN1c2ccccc2CCc2ccccc21 next
32.6

---

organism: Rattus norvegicus; assay: Open TG-GATES - Regimen: Daily Repeat; type: toxicity, organism-based, Sprague-Dawley; design: regimen Daily Repeat, gender Male, age 6 weeks; details: in vivo, po, 1000 mg/kg, […], tissue Blood, route gavage, dose level High, time 14 day
# label = YES if Fbg < 200 mg/dL else NO

Reference set, count: 4
NC(N)=Nc1nc(CSCCC(N)=NS(N)(=O)=O)cs1 [FAMOTIDINE]: NO
CCOC(=O)CCC(=O)O[C@H]1[C@H](O[C@@H]2[C@@H](C)[C@H](O[C@H]3C[C@@](C)(OC)[C@@H](O)[C@H](C)O3)[C@@H](C)C(=O)O[C@H](CC)[C@@](C)(O)[C@H](O)[C@@H](C)C(=O)[C@H](C)C[C@@]2(C)O)O[C@H](C)C[C@@H]1N(C)C [ERYTHROMYCIN ETHYLSUCCINATE]: NO
COC1=CC(=O)C[C@@H](C)[C@]12Oc1c(Cl)c(OC)cc(OC)c1C2=O [GRISEOFULVIN]: NO
CC(C)OC(=O)C(C)(C)Oc1ccc(C(=O)c2ccc(Cl)cc2)cc1 [FENOFIBRATE]: YES

Moving on to another compound below.
In plain terms, does CCOc1ccc(NC(=O)CC(C)O)cc1 (stereo unspecified) [BUCETIN] come in under 200 mg/dL for Fbg?
NO

---

species: Rattus norvegicus; experiment: Open TG-GATES - Regimen: Single; format: toxicity, organism-based, Sprague-Dawley; set-up: regimen Single, gender Male, age 6 weeks; conditions: in vivo, po, 100 mg/kg, 24 h, tissue Blood, route gavage, dose level High
recorded.metric: PT (s)
Report the value in s with no unit label.

Illustrative cases are given below, each with its answer.
CC1=C(/C=C/C(C)=C/C=C/C(C)=C/CO)C(C)(C)CCC1 [RETINOL]: 16
CN(C)CCN(Cc1cccs1)c1ccccn1: 17.3

# PT lookup, item CN(C)CCCN1c2ccccc2CCc2ccccc21 [IMIPRAMINE]
16.6

Query CN(C)CCCN1c2ccccc2CCc2ccc(Cl)cc21 [CLOMIPRAMINE] next
13.5

---

species: Rattus norvegicus; assay: Open TG-GATES - Regimen: Single; type: toxicity, organism-based, Sprague-Dawley; set-up: regimen Single, gender Male, age 6 weeks; details: in vivo, po, 300 mg/kg, 6 h, tissue Blood, route gavage, dose level Middle
recorded.metric: MCV (fL)
Report the value in fL with no unit label.

Illustrative cases are given below, each with its answer.
CCOC(=O)CCC(=O)O[C@H]1[C@H](O[C@@H]2[C@@H](C)[C@H](O[C@H]3C[C@@](C)(OC)[C@@H](O)[C@H](C)O3)[C@@H](C)C(=O)O[C@H](CC)[C@@](C)(O)[C@H](O)[C@@H](C)C(=O)[C@H](C)C[C@@]2(C)O)O[C@H](C)C[C@@H]1N(C)C [ERYTHROMYCIN ETHYLSUCCINATE]: 63.5
COc1ccc2[nH]c([S+]([O-])Cc3ncc(C)c(OC)c3C)nc2c1 (centres undefined): 61.8
NC(N)=Nc1nc(CSCCC(N)=NS(N)(=O)=O)cs1: 62.7

Now consider a different compound.
# MCV lookup, item COC1=CC(=O)C[C@@H](C)[C@]12Oc1c(Cl)c(OC)cc(OC)c1C2=O
64.7

---

species on record: Rattus norvegicus; assay: Open TG-GATES - Regimen: Single; format: toxicity, organism-based, Sprague-Dawley; parameters: regimen Single, gender Male, age 6 weeks; conditions: in vivo, po, 100 mg/kg, 3 h, tissue Blood, route gavage, dose level Low
recorded.metric: APTT (s)
Report the value in s with no unit label.

NC(N)=Nc1nc(CSCCC(N)=NS(N)(=O)=O)cs1: 19.6
COc1ccc2[nH]c([S+]([O-])Cc3ncc(C)c(OC)c3C)nc2c1 (centres undefined): 18.4
COC1=CC(=O)C[C@@H](C)[C@]12Oc1c(Cl)c(OC)cc(OC)c1C2=O: 18.7

# APTT lookup, item CCOC(=O)CCC(=O)O[C@H]1[C@H](O[C@@H]2[C@@H](C)[C@H](O[C@H]3C[C@@](C)(OC)[C@@H](O)[C@H](C)O3)[C@@H](C)C(=O)O[C@H](CC)[C@@](C)(O)[C@H](O)[C@@H](C)C(=O)[C@H](C)C[C@@]2(C)O)O[C@H](C)C[C@@H]1N(C)C [ERYTHROMYCIN ETHYLSUCCINATE]
22.9

---

organism: Rattus norvegicus; assay: Open TG-GATES - Regimen: Daily Repeat; assay type: toxicity, organism-based, Sprague-Dawley; set-up: regimen Daily Repeat, gender Male, age 6 weeks; conditions: in vivo, po, 1000 mg/kg, 72 h, tissue Plasma, route gavage, dose level High, time 3 day
Recorded measurements of CRE, one per entry
Report the value in mg/dL with no unit label.

CCOc1ccc(NC(=O)CC(C)O)cc1 (stereo unspecified): 0.2
CCOC(=O)CCC(=O)O[C@H]1[C@H](O[C@@H]2[C@@H](C)[C@H](O[C@H]3C[C@@](C)(OC)[C@@H](O)[C@H](C)O3)[C@@H](C)C(=O)O[C@H](CC)[C@@](C)(O)[C@H](O)[C@@H](C)C(=O)[C@H](C)C[C@@]2(C)O)O[C@H](C)C[C@@H]1N(C)C [ERYTHROMYCIN ETHYLSUCCINATE]: 0.2
CC(C)OC(=O)C(C)(C)Oc1ccc(C(=O)c2ccc(Cl)cc2)cc1 [FENOFIBRATE]: 0.2
NC(N)=Nc1nc(CSCCC(N)=NS(N)(=O)=O)cs1: 0.4
COc1ccc2[nH]c([S+]([O-])Cc3ncc(C)c(OC)c3C)nc2c1 (stereo unspecified): 0.4

# CRE lookup, item COC1=CC(=O)C[C@@H](C)[C@]12Oc1c(Cl)c(OC)cc(OC)c1C2=O
0.4
